Reported % Inhibition is given for each of the following molecules.
- Tested on: α-glucosidase
- TEST NAME: α-glucosidase enzyme inhibition assay (starch substrate, anthrone reagent, 640 nm)
- Format: biochemical
- CONDITION CONTEXT: 1000 µg/mL, Table 5 (MCu series)
- Experimental: The α-glucosidase-inhibitory activity of all derivatives of metformin was tested using the method previously described. Three test tubes were marked as test (T), blank (B), and control (C). […] The contents in the test tubes were boiled for 15 min, and the absorbance was read at a wavelength at 640 nm. The percentage inhibition was calculated using the following formula:Percentage inhibition = OD of control − OD of test tube/OD of control × 100.
// return numeric value only (unit: %, not printed)

MOLECULE	READOUT VALUE
C[C@H]1O[C@H](O[C@H]2[C@H](O)[C@@H](O)[C@@H](O[C@H]3[C@H](O)[C@@H](O)C(O)O[C@@H]3CO)O[C@@H]2CO)[C@H](O)[C@@H](O)[C@@H]1N[C@H]1C=C(CO)[C@@H](O)[C@H](O)[C@H]1O (stereo partly drawn) [Acarbose, reference compound]	91.83
CN(C)C(=N)NC(=N)N=CC=Cc1ccccc1.CN(C)C(=N)NC(=N)N=CC=Cc1ccccc1.O.O.O.O.O.O=S(=O)([O-])[O-].[Cu+2]	78.23

Now for the molecule whose % Inhibition we want.
Problem: Need % Inhibition of `CC(C)=NC(=N)NC(=N)N(C)C.CC(C)=NC(=N)NC(=N)N(C)C.O.O.O.O.O.O=S(=O)([O-])[O-].[Cu+2]` , thanks.
Result: 56.45
